Molecular target: T1, His-tagged human TIGIT (human, UniProt Q495A1 22-141)
T1 construct: SPR analyte; also called human TIGIT protein; not shown: His tag
T1 sequence: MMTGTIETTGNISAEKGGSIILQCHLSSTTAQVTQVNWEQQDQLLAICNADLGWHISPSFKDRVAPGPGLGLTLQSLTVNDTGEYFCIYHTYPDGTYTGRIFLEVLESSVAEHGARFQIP
Assay: SPR experiment 2, IgG from HEK293 supernatant captured
Listing of entries alongside the reported kon.

- binder: "humanized TIGIT-19 antibody 19VH4.M9 + 19VL1 (antibody, V domains shown, Full-length IgG, tested as HEK293 supernatant) VH: QVQLVQSGAEVKKPGASVKVSCKASGYTFTRYSMYWVRQAPGQGLEWIAFIDAYSGGSTYNQRFRGKATLTVDTSISTAYMELSRLRSDDTAVYYCARGGDYGWYLGVWGQGTLVTVSS VL: DIQMTQSPSSLSASVGDRVTITCRPSENIYTYLSWYQQKPGKAPKLLIYNAKTLPEGVPSRFSGSGSGTDFTLTISSLQPEDFATYYCQHHYGNPLTFGQGTKVEIK"
  kon (M⁻¹ s⁻¹): "1.1e+06"
- binder: "humanized TIGIT-19 antibody 19VH4.M7 + 19VL1 (antibody, V domains shown, Full-length IgG, tested as HEK293 supernatant) VH: QVQLVQSGAEVKKPGASVKVSCKASGYTFTRYSMYWVRQAPGQGLEWIAFIDPYSGGSTYAQKFQGKATLTVDTSISTAYMELSRLRSDDTAVYYCARGGDYGWYLGVWGQGTLVTVSS VL: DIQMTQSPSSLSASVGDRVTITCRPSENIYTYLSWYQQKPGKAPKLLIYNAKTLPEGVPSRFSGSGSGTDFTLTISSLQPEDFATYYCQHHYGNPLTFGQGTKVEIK"
  kon (M⁻¹ s⁻¹): "1.1e+06"
- binder: "humanized TIGIT-19 antibody 19VH4 + 19VL1.M4 (antibody, V domains shown, Full-length IgG, tested as HEK293 supernatant) VH: QVQLVQSGAEVKKPGASVKVSCKASGYAFSRYSMYWVRQAPGQGLEWIAFIDPYNGGSTYNQRFRGKATLTVDTSISTAYMELSRLRSDDTAVYYCARGGDYGWYLGVWGQGTLVTVSS VL: DIQMTQSPSSLSASVGDRVTITCRPSENIYTYLSWYQQKPGKAPKLLIYNAKSLPSGVPSRFSGSGSGTDFTLTISSLQPEDFATYYCQHHYGNPLTFGQGTKVEIK"
  kon (M⁻¹ s⁻¹): "1.2e+06"
- binder: "humanized TIGIT-19 antibody 19VH4 + 19VL1.M7 (antibody, V domains shown, Full-length IgG, tested as HEK293 supernatant) VH: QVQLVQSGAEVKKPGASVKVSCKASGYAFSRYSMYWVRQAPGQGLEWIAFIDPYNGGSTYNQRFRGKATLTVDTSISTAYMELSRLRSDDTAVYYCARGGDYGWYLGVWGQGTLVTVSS VL: DIQMTQSPSSLSASVGDRVTITCRASQSIYSYLSWYQQKPGKAPKLLIYNAKSLPSGVPSRFSGSGSGTDFTLTISSLQPEDFATYYCQHHYGNPLTFGQGTKVEIK"
  kon (M⁻¹ s⁻¹): "1.3e+06"
